Recorded inhibition by entry
target: Methyl-CpG-binding domain protein 4 (Homo sapiens); settings: Compound Concentration 10.0 uM, Hit No;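 further: MBD4 activity read as fluorescence at 594 nm from cleavage and release of a quenched duplex DNA oligonucleotide, with APE1 coupled to incise the strand and raise turnover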
Description: Inhibition of MBD4 by quantifying inhibition of MBD4-mediated cleavage and dissociation of quenched duplex DNA oligonucleotides, measured as fluorescence at 594 nm. To generate a functional strand incision and increase turn-over this assay is coupled to APE1.
// return the numeric value with its unit appended

O=C(NNS(=O)(=O)c1ccccc1)c1cc(-c2ccnnc2)ccc1F :: 88.3%

(Q) Provide only the value of recorded inhibition for `COC1CCN(c2cccc(-c3cc(NC(C)=O)nc(-n4nc(C)cc4C)n3)n2)CC1`
(A) -4.26%

(Q) Provide only the value of recorded inhibition for `CCCCC/C=C\C/C=C\C/C=C\C/C=C\CCCC(=O)OC(CO)CO`
(A) 28.4%

(Q) Provide only the value of recorded inhibition for `O=C(NCc1ccccc1)c1ccc(S(=O)(=O)NCc2ccccc2)cc1`
(A) -9.13%

(Q) Provide only the value of recorded inhibition for `COc1ccc(/C=C/CCCCOc2ccc(C(=O)c3cccc(C(=O)O)c3)cc2CCC(=O)O)cc1`
(A) 49.9%

---

molecular target: Endonuclease III-like protein 1 (Homo sapiens); conditions: Compound Concentration 10.0 uM, Hit No;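 further: enzyme assay tracking NTHL1 cutting and release of a quenched double-stranded DNA oligo substrate, read as fluorescence at 594 nm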
Description: Inhibition of NTHL1 by quantifying inhibition of NTHL1-mediated cleavage and dissociation of quenched duplex DNA oligonucleotides, measured as fluorescence at 594 nm.
Experimental endpoint: inhibition (%)
Numbers only here, please. The scale is %.

CC(C)c1cc(Oc2c(Cl)cc(-n3nc(C#N)c(=O)[nH]c3=O)cc2Cl)n[nH]c1=O :: 7.26
N#Cc1cc2c(OCC(O)CN3CCN(C(c4ccccc4)c4ccccc4)CC3)cccc2[nH]1 (racemic) :: -4.67
N#Cc1c(N)nc(SCC(N)=O)c(C#N)c1-c1ccc(OCC2CC2)cc1 :: 13.7
COc1ncc(F)cc1CNc1ccc(Cc2c[nH]c3ncc(C)cc23)c(F)n1 :: -7.58
CC(C)C[C@H](NC(=O)c1cc2ccccc2s1)C(=O)N1CCN(C(=O)[C@H](CO)NS(=O)(=O)c2ccc(Cl)cc2Cl)CC1 :: 13.8
COc1ccccc1N1CCN(C[C@@H](C(=O)NC(C)(C)C)c2ccccc2)CC1 :: 17.1

(Q) Provide only the value of recorded inhibition for `CCCN1CCO[C@H]2c3cc(O)ccc3OC[C@@H]21`
(A) 7.05

(Q) Provide only the value of recorded inhibition for `Clc1ccc(OC[C@H]2CCN2)cn1`
(A) 5.52

(Q) Provide only the value of recorded inhibition for `NCCc1c[nH]c2ccc(C(N)=O)cc12`
(A) -7.6

(Q) Provide only the value of recorded inhibition for `Cn1cc(C(=O)O)c2ccc(N3CCC(OCc4c(-c5c(Cl)cccc5Cl)noc4C4CC4)CC3)cc21`
(A) 8.57

---

Recorded inhibition by entry
target: Uracil-DNA glycosylase (Homo sapiens) (UniProt P13051); settings: Compound Concentration 10.0 uM, Hit No;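 further: UNG excision on a quenched double-stranded DNA oligo probe, with APE1 added for strand incision and turnover, read as fluorescence at 594 nm as strands separate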
Sequence (P13051 whole entry): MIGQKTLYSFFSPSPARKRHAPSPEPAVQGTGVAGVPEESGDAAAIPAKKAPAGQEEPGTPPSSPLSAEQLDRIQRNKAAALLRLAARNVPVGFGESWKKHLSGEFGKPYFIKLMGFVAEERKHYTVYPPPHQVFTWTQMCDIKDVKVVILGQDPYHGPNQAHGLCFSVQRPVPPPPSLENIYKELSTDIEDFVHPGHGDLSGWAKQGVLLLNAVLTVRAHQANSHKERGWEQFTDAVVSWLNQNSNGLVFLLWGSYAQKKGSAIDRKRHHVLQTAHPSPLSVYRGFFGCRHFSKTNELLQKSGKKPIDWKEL
Description: Inhibition of UNG by quantifying inhibition of UNG-mediated cleavage and dissociation of quenched duplex DNA oligonucleotides, measured as fluorescence at 594 nm. To generate a functional strand incision and increase turn-over this assay is coupled to APE1.
Numbers only here, please. The scale is %.

Examples from the recorded data:
CC(C)(C[C@H]1CN(S(=O)(=O)c2cccc(C(F)(F)F)c2)c2cc(-c3cc(F)cc(OC(F)F)c3)ccc2O1)C(=O)O :: 3.71
Cc1ccc(-c2cnc([C@@]3(O)CC[C@H](C(=O)O)C(C)(C)C3)s2)cc1Nc1cccc(C(F)(F)F)n1 :: 2.77
CCOC(=O)c1ncn2c1[C@@H]1CCCN1C(=O)c1cc(OC)ccc1-2 :: -7.79
C[C@@H]1CCc2ncc(F)cc2[C@H]2CCCN2c2ccn3ncc(c3n2)C(=O)N1 :: 4.92
Cc1onc(-c2ccccc2Cl)c1C(=O)N(C)c1ccc(Cl)cc1 :: -8.91

(Q) Provide only the value of recorded inhibition for `Cc1nnc2n1-c1sc(CCC(=O)N3CCOCC3)cc1C(c1ccccc1Cl)=NC2`
(A) -6.5

(Q) Provide only the value of recorded inhibition for `Cc1onc(-c2ccc(F)cc2)c1COc1ccc(C(=O)N2CCS(=O)(=O)CC2)cn1`
(A) -0.327

(Q) Provide only the value of recorded inhibition for `O=c1ccc2c(OCCCCOc3ccccc3)c3ccoc3cc2o1`
(A) -5.58

(Q) Provide only the value of recorded inhibition for `Cc1ccc2nc(CNCCCOc3ccccc3)cc(O)c2c1`
(A) -1.26

(Q) Provide only the value of recorded inhibition for `Cc1c(C(=O)NN2CCCCC2)nn(-c2ccc(Cl)cc2Cl)c1-c1ccc(Cl)cc1`
(A) 1.35

---

Recorded inhibition by entry
target: DNA-3-methyladenine glycosylase (Homo sapiens) (UniProt P29372); details: Compound Concentration 10.0 uM, Hit No
Sequence (P29372 whole entry): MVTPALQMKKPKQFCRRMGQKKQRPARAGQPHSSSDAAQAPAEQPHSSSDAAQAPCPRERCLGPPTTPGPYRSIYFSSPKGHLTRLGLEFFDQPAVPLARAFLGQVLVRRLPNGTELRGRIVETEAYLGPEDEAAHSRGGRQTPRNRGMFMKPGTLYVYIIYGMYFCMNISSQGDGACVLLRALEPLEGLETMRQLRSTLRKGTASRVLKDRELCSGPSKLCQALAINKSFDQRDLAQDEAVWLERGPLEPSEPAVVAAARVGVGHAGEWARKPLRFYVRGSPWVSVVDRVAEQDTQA
Description: Inhibition of MPG by quantifying inhibition of MPG-mediated cleavage and dissociation of quenched duplex DNA oligonucleotides, measured as fluorescence at 594 nm. To generate a functional strand incision and increase turn-over this assay is coupled to APE1.
Numbers only here, please. The scale is %.

CC1(C)[C@H]2C[C@H](C/C=C\CCCC(=O)O)[C@@H](NC(=O)c3csc4ccc(O)cc34)[C@@H]1C2 :: 9.36
Cc1cc(C)c(NC(=O)C2CC3CCC2C3)c(C)c1 (stereo not given) :: 7.56
O=C1C[C@@H]2OCC=C3CN4CC[C@]56c7ccccc7N1[C@H]5[C@H]2[C@H]3C[C@H]46 :: -1.64
CC(C)(O)CCn1c(=O)n(C(=O)N[C@H](C(N)=O)C(C)(C)C)c2ccccc21 :: -4.33
CC1(C)CC(CN2CCC(F)(CNC(=O)c3cc(Cl)cc(Cl)c3)CC2)CCO1 (stereo not given) :: 9.94

(Q) Provide only the value of recorded inhibition for `CC(C)[C@@H]1CC[C@@H](C)C[C@@H]1P(=O)(c1ccccc1)c1ccccc1`
(A) -5.97

(Q) Provide only the value of recorded inhibition for CN1CCN2c3ncccc3Cc3ccccc3C2C1 (stereo not given)
(A) -7.53

(Q) Provide only the value of recorded inhibition for `Cn1c(=O)n(CCCO)c(=O)c2c1nc(Oc1cccc(Cl)c1)n2Cc1ccc(Cl)cc1`
(A) 11.6

(Q) Provide only the value of recorded inhibition for `CCc1cc2c(cc1CC)CC(NC[C@H](O)c1ccc(O)c3[nH]c(=O)ccc13)C2`
(A) 1.41

(Q) Provide only the value of recorded inhibition for CCN(Cc1ccncc1)C(=O)C(CO)c1ccccc1 (stereo not given)
(A) 3.77

---

Target: Adenine DNA glycosylase (Homo sapiens);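 further: human MUTYH activity read as 594 nm fluorescence from cleavage and release of a quenched DNA duplex, coupled with APE1 for strand incision, lower signal meaning inhibition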
Sequence (whole entry): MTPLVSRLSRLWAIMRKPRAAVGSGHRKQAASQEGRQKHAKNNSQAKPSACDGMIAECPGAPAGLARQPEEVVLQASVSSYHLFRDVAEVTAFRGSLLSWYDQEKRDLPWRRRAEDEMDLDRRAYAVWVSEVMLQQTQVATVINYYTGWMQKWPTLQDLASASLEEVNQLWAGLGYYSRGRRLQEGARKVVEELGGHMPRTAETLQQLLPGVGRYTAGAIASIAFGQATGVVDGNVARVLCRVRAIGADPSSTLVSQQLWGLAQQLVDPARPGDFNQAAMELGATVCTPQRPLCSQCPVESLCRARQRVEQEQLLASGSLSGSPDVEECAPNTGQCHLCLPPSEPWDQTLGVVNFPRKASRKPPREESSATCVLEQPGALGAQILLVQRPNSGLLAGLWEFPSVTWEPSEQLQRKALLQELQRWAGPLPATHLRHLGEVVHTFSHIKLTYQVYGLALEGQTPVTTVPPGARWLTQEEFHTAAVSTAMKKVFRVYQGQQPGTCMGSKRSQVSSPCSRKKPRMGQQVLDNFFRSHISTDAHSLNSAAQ
Settings: Compound Concentration 10.0 uM, Hit No
Description: Inhibition of MUTYH by quantifying inhibition of MUTYH-mediated cleavage and dissociation of quenched duplex DNA oligonucleotides, measured as fluorescence at 594 nm. To generate a functional strand incision and increase turn-over this assay is coupled to APE1.
Experimental endpoint: inhibition

Examples from the recorded data:
CCNC(=O)[C@H]1O[C@@H](n2cnc3c(N)nc(NCCc4ccc(CCC(=O)O)cc4)nc32)[C@H](O)[C@@H]1O :: 11.8%
Cc1cccc([C@H](C)c2c[nH]cn2)c1C :: 5.65%
CCCCc1nc2ccc(NC(=O)NC3CCCCC3)cc2n1Cc1ccc(-c2ccccc2C(=O)O)cc1 :: 38.2%
CCCCN1CCC(COC(=O)c2cc(Cl)c(N)c3c2OCCO3)CC1 :: -7.02%

(Q) Provide only the value of recorded inhibition for COc1cccc(OC)c1-c1cc(C(=O)NC2(C(=O)O)C3CC4CC(C3)CC2C4)nn1-c1ccnc2cc(Cl)ccc12 (stereo not given)
(A) 53.6%

---

molecular target: DNA-3-methyladenine glycosylase (Homo sapiens) (UniProt P29372); details: Compound Concentration 10.0 uM, Hit No
Recorded inhibition by entry

Examples from the recorded data:
CN1CCN(Cc2ccc(-c3cccc(C(=O)Nc4ccccc4CC(=O)O)c3)cc2)CC1 :: 12.7%
CC[C@@H]1C(=O)N(C)c2cnc(Nc3ccc(C(=O)NC4CCN(C)CC4)cc3OC)nc2N1C1CCCC1 :: 7.81%
CC(C)(C)c1ccc(NC(=O)N2CCN(c3ncccc3Cl)CC2)cc1 :: 9.36%

Note: attention shifts to another entry.
(Q) Provide only the value of recorded inhibition for `CCC(=O)OCC(=O)[C@@]1(OC(=O)CC)[C@@H](C)C[C@H]2[C@@H]3CCC4=CC(=O)C=C[C@]4(C)[C@@]3(Cl)[C@@H](O)C[C@@]21C`
(A) 2.96%

---

target: G/T mismatch-specific thymine DNA glycosylase (Homo sapiens) (UniProt Q13569); details: Compound Concentration 10.0 uM, Hit No;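 further: human TDG cleavage of quenched duplex DNA oligonucleotides coupled to APE1, strand release read as fluorescence at 594 nm, inhibition of TDG activity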
Sequence (Q13569 whole entry): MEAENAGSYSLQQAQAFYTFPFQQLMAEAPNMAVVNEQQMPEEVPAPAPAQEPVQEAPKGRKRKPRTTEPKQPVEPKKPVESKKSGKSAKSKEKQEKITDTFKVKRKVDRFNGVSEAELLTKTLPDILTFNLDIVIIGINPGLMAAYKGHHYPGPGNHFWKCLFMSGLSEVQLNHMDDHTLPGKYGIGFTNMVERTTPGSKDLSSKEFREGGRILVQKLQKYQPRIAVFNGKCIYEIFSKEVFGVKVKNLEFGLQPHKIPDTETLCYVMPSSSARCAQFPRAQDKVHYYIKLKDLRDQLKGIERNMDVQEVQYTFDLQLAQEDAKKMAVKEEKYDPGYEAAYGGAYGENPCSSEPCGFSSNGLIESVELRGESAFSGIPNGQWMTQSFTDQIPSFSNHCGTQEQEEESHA
Description: Inhibition of TDG by quantifying inhibition of TDG-mediated cleavage and dissociation of quenched duplex DNA oligonucleotides, measured as fluorescence at 594 nm. To generate a functional strand incision and increase turn-over this assay is coupled to APE1.
Recorded inhibition by entry
Numbers only here, please. The scale is %.

Examples from the recorded data:
O=C(NCCN1CCC(n2c(=O)[nH]c3cc(Cl)ccc32)CC1)c1ccc(F)cc1 :: -0.00915
Cc1nc(-c2ccc(-c3ccc(C(=O)N4CCc5cc6c(cc54)C4(CCN(C)CC4)CO6)cc3)c(C)c2)no1 :: -5.26

(Q) Provide only the value of recorded inhibition for `C[C@@H](c1cccc(CN)c1)n1cc(Cl)cc(C(N)=O)c1=N`
(A) 49.3

(Q) Provide only the value of recorded inhibition for `CCCCC/C=C\C/C=C\C/C=C\C/C=C\CCCC(=O)OC(CO)CO`
(A) 27

(Q) Provide only the value of recorded inhibition for `COc1ccccc1/C=N/NC(=O)COc1ccc(Cl)cc1C`
(A) 18.2

(Q) Provide only the value of recorded inhibition for `O=C(O)c1cc(F)c2nc(N3[C@@H]4CC[C@H]3C[C@@H](OCc3c(-c5ccccc5OC(F)(F)F)noc3C3CC3)C4)sc2c1`
(A) 99.3

(Q) Provide only the value of recorded inhibition for `N[C@@]1(C(=O)O)CO[C@H]2[C@H](C(=O)O)[C@H]21`
(A) 9.39

(Q) Provide only the value of recorded inhibition for `C[C@@H]1CN(c2ncc(Cl)c(Nc3ccc4c(c3)n(CCC(C)(C)O)c(=O)n4C)n2)C[C@H](C)C1(F)F`
(A) 57.5

(Q) Provide only the value of recorded inhibition for `CCCCCCCCc1ccc(CC[C@](N)(CO)COP(=O)(O)O)cc1`
(A) 7.26

(Q) Provide only the value of recorded inhibition for `COc1ccnc(N2CCC3(CCCN(Cc4c[nH]c5ccccc45)C3=O)CC2)n1`
(A) 4.73

(Q) Provide only the value of recorded inhibition for `c1nc(CC2CCNCC2)c[nH]1`
(A) 10.2

(Q) Provide only the value of recorded inhibition for `CN1CCN(c2cnc3c(C4CCN(C(=O)c5ccc(OC(F)(F)F)cc5N)CC4)ncnc3c2)CC1`
(A) 43.6
